- target-desc: JMJD6Δ363‐403 (Homo sapiens, UniProt Q6NYC1)
- Construct: made in house
- experimental-protocol: MALDI-TOF MS assay of JMJD6-catalysed lysine hydroxylation of LUC7L2 267-278 peptide
- Type: biochemical
- settings: IC50, mean±SD, n=3; 10 μM JMJD6Δ363‐403, 100 μM LUC7L2 267‐278, 100 μM Fe(II), 400 μM L-sodium ascorbate, 20 μM 2OG, inhibitor 0–10 mM
For each record, write down the corresponding log10 of IC50.
Scale: decimal log of IC50, IC50 in µM.

Ask: So what does the record say about log10 of IC50 for CC(Cc1ccsc1)C(=O)c1c(O)n(C)c(=O)n(C)c1=O (stereo not drawn) [compound 16] ?
Result: 2.33

Ask: So what does the record say about log10 of IC50 for O=C(O)CNC(=O)c1c(O)n(C2CCCCC2)c(=O)n(C2CCCCC2)c1=O [GSK1278863, reference compound] ?
Result: 1.00

Ask: So what does the record say about log10 of IC50 for `Cn1c(O)c(C(=O)CCC2CCCC2)c(=O)n(C)c1=O` ?
Result: 1.83

Ask: So what does the record say about log10 of IC50 for `CCOC(=O)CNC(=O)c1c(O)n(C2CCCCC2)c(=O)n(C2CCCCC2)c1=O` ?
Result: 2.24

Ask: So what does the record say about log10 of IC50 for `COc1cccc(CCC(=O)c2c(O)n(C)c(=O)n(C)c2=O)c1` ?
Result: 2.13

Ask: So what does the record say about log10 of IC50 for CC(Cc1ccsc1)C(=O)c1c(O)n(C)c(=O)n(C)c1=O (stereo not drawn) [compound 17] ?
Result: 1.34

---

- target-desc: JMJD6Δ363‐403 (Homo sapiens)
- Construct: made in house
- experimental-protocol: MALDI-TOF MS assay of JMJD6-catalysed lysine hydroxylation of LUC7L2 267-278 peptide
- Assay type: biochemical
- settings: mean±SD, n=3; 10 μM JMJD6Δ363‐403, 100 μM LUC7L2 267‐278, 100 μM Fe(II), 400 μM L-sodium ascorbate, 20 μM 2OG, inhibitor 0–10 mM; read-out: IC50
Threshold 70 µM: IC50 strictly smaller gives Met, otherwise Not met.

Ask: Problem: For the compound O=c1c(-n2ccnn2)c[nH]n1-c1cc(N2CCOCC2)ncn1 [Molidustat, reference compound] , is IC50 under 70 µM?
Result: Not met

Ask: Problem: For the compound O=C(O)c1ccc(O)c2ncccc12 [IOX1, 5‐carboxy‐8‐hydroxyquinoline, reference compound] , is IC50 under 70 µM?
Result: Met

Ask: Problem: For the compound O=C(O)CC[C@H](O)C(=O)O [L‐2HG, 2‐hydroxyglutarate] , is IC50 under 70 µM?
Result: Not met

Ask: Problem: For the compound O=C(O)/C=C/C(=O)O [Fumarate] , is IC50 under 70 µM?
Result: Not met

Ask: Problem: For the compound `O=C(O)CNC(=O)CNC(=O)C(=O)O` , is IC50 under 70 µM?
Result: Not met

Ask: Problem: For the compound O=C(O)CC(O)(CC(=O)O)C(=O)O [Citrate] , is IC50 under 70 µM?
Result: Not met

Ask: Problem: For the compound O=C(O)c1ccnc(-c2cc(C(=O)O)ccn2)c1 [2,4 BPDCA, 2,2’‐bipyridine‐4,4’‐dicarboxylate, reference compound] , is IC50 under 70 µM?
Result: Met

Ask: Problem: For the compound O=C(O)c1ccnc(C(=O)O)c1 [2,4 PDCA, pyridine‐2,4‐dicarboxylate, reference compound] , is IC50 under 70 µM?
Result: Met

Ask: Problem: For the compound O=C(O)CC(=O)C(=O)O [Oxaloacetate] , is IC50 under 70 µM?
Result: Not met
